Checkbox rule: MDR1-MDCK efflux ratio lower than 0.9 = true (1); MDR1-MDCK efflux ratio not lower than 0.9 = false (0).

Please state whether MDR1-MDCK efflux ratio is below 0.9 for "COc1ccc([C@H]2CN(C(C)=O)[C@@H]3CCCN(Cc4cccc(F)c4)[C@H]23)cc1"
false (0)

Please state whether MDR1-MDCK efflux ratio is below 0.9 for "Cc1cn[nH]c1C1(C)CCN(Cc2cnn(C)c2)CC1"
false (0)

Please state whether MDR1-MDCK efflux ratio is below 0.9 for "Cc1csc2nc3n(c(=O)c12)CCNCC3"
true (1)

Please state whether MDR1-MDCK efflux ratio is below 0.9 for "OCc1cnnn1-c1cncc(Cl)n1"
true (1)

Please state whether MDR1-MDCK efflux ratio is below 0.9 for CNCc1cc(N(C)C)nc(C2CCCN2C(=O)c2ccccc2-c2ccccc2)n1 (stereo unspecified)
false (0)
